Species: Rattus norvegicus
Assay: Activity against NO-mediated vasorelaxation of KCl-induced contractile tone in Wistar rat thoracic aortic ring
Format: functional
Details: Aorta
Entries and their Emax
recorded.endpoint: Emax (%)

[[record]]
compound = "CCCCc1nc(Cl)c(COC(=O)c2ccc(CO[N+](=O)[O-])cc2)n1Cc1ccc(-c2ccccc2-c2nn[nH]n2)cc1"
experimental_result = 100

[[record]]
compound = "CCCCc1nc(Cl)c(COC(=O)c2ccc(C(C)O[N+](=O)[O-])cc2)n1Cc1ccc(-c2ccccc2-c2nn[nH]n2)cc1 (centres undefined)"
experimental_result = 100

[[record]]
compound = "CCCCc1nc(Cl)c(COC(=O)c2cccc(C(C)O[N+](=O)[O-])c2)n1Cc1ccc(-c2ccccc2-c2nn[nH]n2)cc1 (centres undefined)"
experimental_result = 47

[[record]]
compound = "CCCCc1nc(Cl)c(C(=O)Oc2cccc(CO[N+](=O)[O-])c2)n1Cc1ccc(-c2ccccc2-c2nn[nH]n2)cc1"
experimental_result = 100


----------
Biological target: Type-1 angiotensin II receptor (Homo sapiens) (UniProt P30556)
Sequence (whole entry): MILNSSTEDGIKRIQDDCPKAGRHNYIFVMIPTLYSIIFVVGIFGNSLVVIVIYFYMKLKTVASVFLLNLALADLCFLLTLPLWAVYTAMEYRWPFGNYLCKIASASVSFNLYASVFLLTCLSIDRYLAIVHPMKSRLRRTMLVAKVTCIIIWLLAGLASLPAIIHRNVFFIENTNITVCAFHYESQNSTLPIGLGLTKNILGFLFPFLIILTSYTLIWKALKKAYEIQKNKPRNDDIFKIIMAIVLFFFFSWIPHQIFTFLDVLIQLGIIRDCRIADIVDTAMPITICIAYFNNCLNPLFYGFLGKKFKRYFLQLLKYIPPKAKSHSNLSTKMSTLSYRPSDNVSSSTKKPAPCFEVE
Test: Antagonist activity against AT1 receptor after 60 min preincubation
Type: functional
recorded.endpoint: Kb (nM)

[[record]]
compound = "CCCCc1nc(Cl)c(COC(=O)c2ccc(C(C)O[N+](=O)[O-])cc2)n1Cc1ccc(-c2ccccc2-c2nn[nH]n2)cc1 (centres undefined)"
experimental_result = 8

[[record]]
compound = "CCCCc1nc(Cl)c(COC(=O)c2cccc(CO[N+](=O)[O-])c2)n1Cc1ccc(-c2ccccc2-c2nn[nH]n2)cc1"
experimental_result = 10

[[record]]
compound = "CCCCc1nc(Cl)c(COC(=O)c2cccc(C(C)O[N+](=O)[O-])c2)n1Cc1ccc(-c2ccccc2-c2nn[nH]n2)cc1 (centres undefined)"
experimental_result = 12

[[record]]
compound = "CCCCc1nc(Cl)c(CO[N+](=O)[O-])n1Cc1ccc(-c2ccccc2-c2nn[nH]n2)cc1"
experimental_result = 3


----------
Biological target: Type-1 angiotensin II receptor (Homo sapiens)
Sequence (whole entry): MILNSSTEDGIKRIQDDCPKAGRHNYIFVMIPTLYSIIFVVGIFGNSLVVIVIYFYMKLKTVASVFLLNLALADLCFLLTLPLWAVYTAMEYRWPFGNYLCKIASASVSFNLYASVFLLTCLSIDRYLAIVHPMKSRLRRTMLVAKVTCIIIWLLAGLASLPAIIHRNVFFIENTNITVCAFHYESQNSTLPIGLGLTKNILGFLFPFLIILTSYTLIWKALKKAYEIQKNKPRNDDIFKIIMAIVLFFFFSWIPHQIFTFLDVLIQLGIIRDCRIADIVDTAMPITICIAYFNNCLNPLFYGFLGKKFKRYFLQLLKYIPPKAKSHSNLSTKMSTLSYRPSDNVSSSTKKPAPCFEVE
Test: Antagonist activity against AT1 receptor after 20 min preincubation
Type: functional
Calls of active or inactive are those of the source. No cut-off for these calls is given here.
recorded.endpoint: Kb

[[record]]
compound = "CCCCc1nc(Cl)c(COC(=O)c2cccc(CO[N+](=O)[O-])n2)n1Cc1ccc(-c2ccccc2-c2nn[nH]n2)cc1"
recorded_endpoint = "Kb"
experimental_result = "8 nM"

[[record]]
compound = "CCCCc1nc(Cl)c(COC(=O)c2ccc(C(C)O[N+](=O)[O-])cc2)n1Cc1ccc(-c2ccccc2-c2nn[nH]n2)cc1 (stereo not drawn)"
recorded_endpoint = "Kb"
experimental_result = "inactive"

[[record]]
compound = "CCCCc1nc(Cl)c(C(=O)Oc2ccc(CO[N+](=O)[O-])cc2)n1Cc1ccc(-c2ccccc2-c2nn[nH]n2)cc1"
recorded_endpoint = "Kb"
experimental_result = "inactive"

[[record]]
compound = "CCCCc1nc(Cl)c(COC(=O)CCCCO[N+](=O)[O-])n1Cc1ccc(-c2ccccc2-c2nn[nH]n2)cc1"
recorded_endpoint = "Kb"
experimental_result = "16 nM"

[[record]]
compound = "CCCCc1nc(Cl)c(COC(=O)c2cccc(C(C)O[N+](=O)[O-])c2)n1Cc1ccc(-c2ccccc2-c2nn[nH]n2)cc1 (stereo not drawn)"
recorded_endpoint = "Kb"
experimental_result = "inactive"

[[record]]
compound = "CCCCc1nc(Cl)c(CO[N+](=O)[O-])n1Cc1ccc(-c2ccccc2-c2nn[nH]n2)cc1"
recorded_endpoint = "Kb"
experimental_result = "inactive"

[[record]]
compound = "CCCCc1nc(Cl)c(COC(=O)c2c(C)ccc(CO[N+](=O)[O-])c2C)n1Cc1ccc(-c2ccccc2-c2nn[nH]n2)cc1"
recorded_endpoint = "Kb"
experimental_result = "inactive"

[[record]]
compound = "CCCCc1nc(Cl)c(COC(=O)c2ccc(CO[N+](=O)[O-])cc2)n1Cc1ccc(-c2ccccc2-c2nn[nH]n2)cc1"
recorded_endpoint = "Kb"
experimental_result = "19 nM"


Reference source: ChEMBL document CHEMBL1146120
